assay: Thermodynamic solubility, shake-flask, 10 mM PBS (0.15 M KCl) pH 7, 25 °C, 1 h, HPLC-UV; details: 25 °C, pH 7, aqueous buffer, thermodynamic from solid, Solubility average, thermodynamic, shake-flask, pH 7, 25 °C, 1 h
Measurement Kind: solubility at 1 h (µM)
The reply should contain only the number, in µM.

Prompt: Specify reported solubility at 1 h for the compound shown: COC(=O)C[C@@H]1N=C(c2ccc(Cl)cc2)c2c(sc(C(=O)NCCCCCNc3cccc4c3C(=O)N(C3CCC(=O)NC3=O)C4=O)c2C)-n2c(C)nnc21 (some centres unmarked)
Completion: 2.95

Prompt: Specify reported solubility at 1 h for the compound shown: Cc1ncsc1-c1ccc(CNC(=O)[C@@H]2C[C@H](O)CN2C(=O)[C@@H](NC(=O)COCCOCCOCCNC(=O)C[C@@H]2N=C(c3ccc(Cl)cc3)c3c(sc(C)c3C)-n3c(C)nnc32)C(C)(C)C)cc1 [CisMZ1]
Completion: 50.1

Prompt: Specify reported solubility at 1 h for the compound shown: Cc1ncsc1-c1ccc(CNC(=O)[C@@H]2C[C@H](O)CN2C(=O)[C@@H](NC(=O)COCCOCCOCCOCCOCCOCC(=O)N[C@H](C(=O)N2C[C@@H](O)C[C@H]2C(=O)NCc2ccc(-c3scnc3C)cc2)C(C)(C)C)C(C)(C)C)cc1
Completion: 331
